Test system: MDA-MB-435
Assay: NCI tumour cell line growth inhibition, 48 h
Calls of active or inactive are those of the source. No stated cut-off is given here; in the data, active = GI50 up to about 1.1 µM and inactive = higher.
I'd be grateful if you could share measured GI50 for these entries.

Quote GI50 reported for O=c1oc2ccccc2cc1-c1nc2ccccc2c(=O)[nH]1 please. > 100 µM (inactive)

Quote GI50 reported for Nc1cc(CO)cc(Nc2nc3ccc(Cl)cc3c3[nH]c4ccccc4c23)c1 please. 3.85 µM (inactive)

Quote GI50 reported for Clc1cc(Cl)ncn1 please. > 100 µM (inactive)

Quote GI50 reported for N=c1oc2cc(O)ccc2cc1C(=O)Nc1cccc2ccccc12 please. 1.97 µM (inactive)

Quote GI50 reported for N/N=C1N=C(Cl)/C(=C/c2ccco2)N\1 please. 40.6 µM (inactive)

Quote GI50 reported for CCOC(=O)c1c(SC)nc(-c2ccc(Cl)cc2)sc1=N.[O-][Cl+3]([O-])([O-])O please. 34 µM (inactive)

====

I'd be grateful if you could share measured GI50 for these entries.
Test system: RXF 393
Test: NCI tumour cell line growth inhibition, 48 h
Active and inactive are the calls of the source. No stated cut-off is given here; in the data, active = GI50 up to about 1.1 µM and inactive = higher.

Quote GI50 reported for CCCCCOc1ccc(NC2=C(Cl)C(=O)c3c(O)ccc(O)c3C2=O)cc1 please. 4.71 µM (inactive)

Quote GI50 reported for CCOC(=O)c1csc(CCCCCCc2nc(C(=O)OCC)cs2)n1 please. 31.6 µM (inactive)

Quote GI50 reported for CO/N=C1/C(n2[nH]c(=O)n(-c3ccccc3)c2=O)C2C=CC1n1c(=O)n(-c3ccccc3)c(=O)n12 (stereo not given) please. > 100 µM (inactive)

Quote GI50 reported for CC(=O)OC1CC[C@@]2(C)C(=CC[C@@H]3[C@@H]2CC[C@]2(C)C(OC(C)=O)[C@H](n4ccnc4)C[C@@H]32)C1 (stereo not given in full) please. 30.2 µM (inactive)

Quote GI50 reported for O=C1C(=C/C=C2/SC(c3ccccc3)(c3ccccc3)c3ccccc32)C(=O)c2ccccc21 please. > 100 µM (inactive)

====

Tested on: A498
Experiment: NCI tumour cell line growth inhibition, 48 h
Activity calls are given as the source filed them. Cut-off read from the data, not from the text of the source: active = GI50 up to about 1.1 µM and inactive = higher.
I'd be grateful if you could share measured GI50 for these entries.

Quote GI50 reported for C[n+]1c2ccccc2c(NC(CCCNC(=N)N)C(=O)O)c2ccccc21 (stereo not given) please. > 100 µM (inactive)

Quote GI50 reported for O=C1CC(c2ccccc2)Oc2ccccc21 (stereo not given) [FLAVANONE] please. 30.3 µM (inactive)

Quote GI50 reported for CN(C)C(=S)/N=c1\ss/c(=N\C(=S)N(C)C)n1-c1ccc(Cl)cc1 please. > 100 µM (inactive)

Quote GI50 reported for CCOC(=O)C(=O)Nc1c(CC)cccc1C(C)C please. > 100 µM (inactive)

Quote GI50 reported for C[C@@H]1S[C@H](c2c(Cl)cccc2Cl)N2Cc3ccccc3N=C12 please. > 100 µM (inactive)

Quote GI50 reported for c1ccc(NNN2NC(c3ccccc3)C2c2ccccc2)cc1 (stereo not given) please. > 100 µM (inactive)

Quote GI50 reported for CSc1ccc(/C=C2\N=C(c3ccccc3)N(NC(=O)c3c(Cl)c(Cl)c(Cl)c(Cl)c3-c3nc4ccccc4[nH]3)C2=O)cc1 please. 30.8 µM (inactive)

Quote GI50 reported for O=C(Cn1c(-c2ccccc2)cc2ccccc21)N1CCOCC1 please. > 100 µM (inactive)

Quote GI50 reported for CC(C)C1C(=O)N(c2c(F)c(F)c(F)c(F)c2F)C(=S)N1CC[S+]([O-])c1ccccc1 (stereo not given) please. 16.6 µM (inactive)

Quote GI50 reported for CSc1nc(=O)n(CCC#N)nc1SC please. > 100 µM (inactive)
